tested on: HPK1/GLK; assay: Selectivity of degrading HPK1/GLK in Jurkat cells (Western blot, 24 h); type: cell-based; settings: HPK1/GLK Fold = DC50 (HPK1) / DC50 (GLK)
parameter: HPK1/GLK Fold

compound	parameter	result
Cc1cc(-c2cnc3[nH]cc(-c4ccc(C(=O)N(C)C)cc4)c3n2)cc(C)c1C1=CCN(CC2CN(c3ccc(C(=O)NC4CCC(=O)NC4=O)nc3)C2)CC1 (stereo not drawn)	HPK1/GLK Fold	++++ (1000≤Fold)
Cc1cc(-c2cnc3[nH]cc(-c4cnc5cc(F)ccn45)c3n2)cc(C)c1C1=CCN(CC2CN(c3ccc(N4CCC(=O)NC4=O)c(F)c3)C2)CC1	HPK1/GLK Fold	++++ (1000≤Fold)
Cc1cc(-c2cnc3[nH]cc(-c4ccc(C(=O)N(C)C)cc4)c3n2)cc(C)c1C1=CCN(C2CN(c3ccc(C(=O)NC4CCC(=O)NC4=O)cn3)C2)CC1 (stereo not drawn)	HPK1/GLK Fold	++++ (1000≤Fold)

* * *

Assay read-out pIC50; system under study: UniProtKB Q92918.
Sequence (Q92918 whole entry): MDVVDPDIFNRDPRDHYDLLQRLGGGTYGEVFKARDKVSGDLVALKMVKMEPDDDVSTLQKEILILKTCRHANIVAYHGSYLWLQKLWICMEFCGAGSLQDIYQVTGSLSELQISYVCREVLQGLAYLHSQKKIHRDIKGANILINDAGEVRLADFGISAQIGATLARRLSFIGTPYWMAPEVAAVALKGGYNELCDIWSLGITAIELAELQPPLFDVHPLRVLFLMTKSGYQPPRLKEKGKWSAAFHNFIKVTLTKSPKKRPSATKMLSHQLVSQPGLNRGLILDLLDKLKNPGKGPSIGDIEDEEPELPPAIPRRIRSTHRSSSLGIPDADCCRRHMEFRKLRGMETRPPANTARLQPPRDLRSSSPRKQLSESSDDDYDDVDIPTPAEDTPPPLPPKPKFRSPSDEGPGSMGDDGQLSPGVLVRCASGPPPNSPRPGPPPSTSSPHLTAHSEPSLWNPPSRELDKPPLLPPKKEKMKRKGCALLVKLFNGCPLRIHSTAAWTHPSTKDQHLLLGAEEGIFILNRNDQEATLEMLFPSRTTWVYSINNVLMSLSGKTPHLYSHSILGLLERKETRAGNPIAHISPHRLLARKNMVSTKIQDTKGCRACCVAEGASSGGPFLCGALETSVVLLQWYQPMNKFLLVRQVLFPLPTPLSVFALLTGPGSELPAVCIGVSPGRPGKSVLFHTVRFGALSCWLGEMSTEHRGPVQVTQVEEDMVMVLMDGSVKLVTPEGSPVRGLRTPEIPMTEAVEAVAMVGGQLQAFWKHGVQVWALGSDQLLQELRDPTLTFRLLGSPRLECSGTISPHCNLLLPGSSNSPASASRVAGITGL
pIC50: −log10 of the molar value.

Req: Fill in reported pIC50 for this entry: Cc1cc(-c2cnc3[nH]cc(-c4cnsc4)c3n2)cc(C)c1C1=CCN(CC2CN(c3ccc(N4CCC(=O)NC4=O)c(F)c3)C2)CC1 [compound 154]
Resp: > 8.00

Req: Fill in reported pIC50 for this entry: Cc1cc(-c2cnc3[nH]cc(-n4cc(C(F)F)cn4)c3n2)cc(C)c1C1=CCN(CC2CN(c3ccc(N4CCC(=O)NC4=O)c(F)c3)C2)CC1 [compound 159]
Resp: > 8.00

Req: Fill in reported pIC50 for this entry: Cc1cc(-c2cnc3[nH]cc(-n4cc(F)cn4)c3n2)cc(C)c1C1=CCN(CC2CN(c3ccc(N4CCC(=O)NC4=O)c(F)c3)C2)CC1 [compound 163]
Resp: > 8.00

Req: Fill in reported pIC50 for this entry: Cc1cc(N2CC(C(C)N3CC=C(c4c(C)cc(-c5cnc6[nH]cc(-c7ccc(C(=O)N(C)C)cc7)c6n5)cc4C)CC3)C2)ccc1N1CCC(=O)NC1=O (centres unmarked) [compound 042]
Resp: > 8.00

Req: Fill in reported pIC50 for this entry: CN(C)C(=O)c1ccc(-c2c[nH]c3ncc(-c4ccc(C5=CCN(CC6CN(c7ccc(C(=O)NC8CCC(=O)NC8=O)cc7)C6)CC5)c(C5CCCN5)c4)nc23)cc1 (centres unmarked) [compound 058]
Resp: > 8.00

Req: Fill in reported pIC50 for this entry: Cc1cc(-c2cnc3[nH]cc(-c4c(C)noc4C)c3n2)cc(C)c1C1=CCN(CC2CN(c3ccc(N4CCC(=O)NC4=O)c(F)c3)C2)CC1 [compound 155]
Resp: > 8.00

Req: Fill in reported pIC50 for this entry: Cc1cc(N2CC(CN3CC=C(c4c(C)cc(-c5cnc(N)c(Oc6ccc(C(=O)N(C)C)cc6)n5)cc4C)CC3)C2)ccc1N1CCC(=O)NC1=O [compound 091]
Resp: > 8.00

Req: Fill in reported pIC50 for this entry: Cc1cc(-c2cnc3[nH]cc(-c4ccc(C(=O)N(C)C)nc4)c3n2)cc(C)c1C1=CCN(CC2CN(c3ccc(C(=O)NC4CCC(=O)NC4=O)cc3)C2)CC1 (centres unmarked) [compound 030]
Resp: > 8.00

Req: Fill in reported pIC50 for this entry: Cc1cc(-c2cnc3[nH]cc(-c4ccc(C(=O)N(C)C)cc4)c3n2)cc(C)c1C1=CCN(CC#Cc2cccc3c(C4CCC(=O)NC4=O)coc23)CC1 (centres unmarked) [compound 024]
Resp: > 8.00

Req: Fill in reported pIC50 for this entry: Cc1cc(-c2cnc3[nH]cc(-c4ccc(C(=O)N(C)C)c(F)c4)c3n2)cc(C)c1C1=CCN(CC2CN(c3ccc(C(=O)NC4CCC(=O)NC4=O)cc3)C2)CC1 (centres unmarked) [compound 029]
Resp: > 8.00

Req: Fill in reported pIC50 for this entry: Cc1cc(-c2cnc3[nH]cc(-c4ccc(C(=O)N(C)C)cc4)c3n2)cc(C)c1C1=CCN(CC2CN(c3ccc(OC4CCC(=O)NC4=O)cn3)C2)CC1 (centres unmarked) [compound 086]
Resp: > 8.00

These data points were gathered from patent EP4813992A1.
